Biological target: Delta-type opioid receptor (Homo sapiens, UniProt P41143)
Sequence (P41143 whole entry): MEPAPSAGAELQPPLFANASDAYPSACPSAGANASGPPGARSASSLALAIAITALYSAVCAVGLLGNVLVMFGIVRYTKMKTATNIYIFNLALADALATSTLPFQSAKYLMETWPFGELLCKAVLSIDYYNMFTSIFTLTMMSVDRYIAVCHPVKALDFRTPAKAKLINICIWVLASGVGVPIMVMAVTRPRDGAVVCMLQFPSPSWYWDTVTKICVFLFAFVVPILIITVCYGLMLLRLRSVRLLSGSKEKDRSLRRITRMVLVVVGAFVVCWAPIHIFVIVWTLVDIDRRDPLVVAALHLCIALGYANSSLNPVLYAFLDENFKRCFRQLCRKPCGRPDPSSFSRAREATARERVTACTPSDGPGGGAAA
Assay: Binding affinity towards delta opioid receptor by the displacement of [125I]deltorphin
pIC50: −log10 of the molar value.

{"columns": ["MOLECULE", "MEASUREMENT TARGET", "pIC50"],
 "data": [
  ["COc1ccc(F)cc1-c1cccn(C(CN2CCCC2)c2ccccc2)c1=O (stereo not given)", "Delta-type opioid receptor (Homo sapiens, UniProt P41143)", 5.36],
  ["O=c1c(-c2ccccc2C(F)(F)F)cccn1C(CN1CCCC1)c1ccccc1 (stereo not given)", "Delta-type opioid receptor (Homo sapiens, UniProt P41143)", "< 5.00"],
  ["O=c1c(-c2ccccc2)cccn1C(CN1CCCC1)c1ccccc1 (stereo not given)", "Delta-type opioid receptor (Homo sapiens, UniProt P41143)", "< 5.00"],
  ["O=c1c(-c2cccc([N+](=O)[O-])c2)cccn1C(CN1CCCC1)c1ccccc1 (stereo not given)", "Delta-type opioid receptor (Homo sapiens, UniProt P41143)", "< 5.00"],
  ["O=c1c(-c2ccc3ccccc3c2)cccn1C(CN1CCCC1)c1ccccc1 (stereo not given)", "Delta-type opioid receptor (Homo sapiens, UniProt P41143)", "< 5.00"]
]}

====

pIC50: −log10 of the molar value.
Observed pIC50 values for Mu-type opioid receptor (Homo sapiens, UniProt P35372) are listed in what follows.
MEASURED PARAMETER: pIC50

{"columns": ["MOLECULE", "COMPARISON OPERATOR", "NUMERIC READOUT"],
 "data": [
  ["O=c1c(-c2cc(F)ccc2F)cccn1C(CN1CCCC1)c1ccccc1 (stereo not drawn)", "<", 5.00],
  ["O=c1c(-c2ccccc2)cccn1C(CN1CCCC1)c1ccccc1 (stereo not drawn)", "<", 5.00],
  ["O=c1c(-c2cccc([N+](=O)[O-])c2)cccn1C(CN1CCCC1)c1ccccc1 (stereo not drawn)", "=", 5.41],
  ["COc1ccccc1-c1cccn(C(CN2CCCC2)c2ccccc2)c1=O (stereo not drawn)", "=", 5.92],
  ["COc1ccc(F)cc1-c1cccn(C(CN2CCCC2)c2ccccc2)c1=O (stereo not drawn)", "=", 5.46],
  ["O=c1c(-c2ccc(Cl)c(Cl)c2)cccn1C(CN1CCCC1)c1ccccc1 (stereo not drawn)", "=", 5.69],
  ["O=c1c(-c2cccc(Cl)c2)cccn1C(CN1CCCC1)c1ccccc1 (stereo not drawn)", "=", 6.51],
  ["COc1ccc(Cl)cc1-c1cccn(C(CN2CCCC2)c2ccccc2)c1=O (stereo not drawn)", "=", 5.91],
  ["O=c1c(-c2ccc(Cl)cc2)cccn1C(CN1CCCC1)c1ccccc1 (stereo not drawn)", "=", 5.32],
  ["O=c1c(-c2ccccc2C(F)(F)F)cccn1C(CN1CCCC1)c1ccccc1 (stereo not drawn)", "=", 5.77],
  ["N#Cc1cccc(-c2cccn(C(CN3CCCC3)c3ccccc3)c2=O)c1 (stereo not drawn)", "=", 5.37],
  ["COc1ccc(-c2cccn(C(CN3CCCC3)c3ccccc3)c2=O)cc1 (stereo not drawn)", "=", 5.83],
  ["COc1ccc(OC)c(-c2cccn(C(CN3CCCC3)c3ccccc3)c2=O)c1 (stereo not drawn)", "<", 5.30],
  ["O=c1c(-c2ccc3ccccc3c2)cccn1C(CN1CCCC1)c1ccccc1 (stereo not drawn)", "=", 5.57],
  ["O=c1c(-c2ccc(C(F)(F)F)cc2)cccn1C(CN1CCCC1)c1ccccc1 (stereo not drawn)", "=", 5.57],
  ["O=c1c(-c2ccc(F)cc2)cccn1C(CN1CCCC1)c1ccccc1 (stereo not drawn)", "<", 5.00],
  ["Cc1cccc(-c2cccn(C(CN3CCCC3)c3ccccc3)c2=O)c1 (stereo not drawn)", "<", 5.00],
  ["O=c1c(-c2ccc(OC(F)(F)F)cc2)cccn1C(CN1CCCC1)c1ccccc1 (stereo not drawn)", "=", 5.96]
]}
